All figures here come from patent US20200017592A1.

- test_target: T1, in-line fusion protein of human IL-36R extracellular domain and IL1RAcP extracellular domain expressed with … (human; mouse, UniProt Q9HB29 20-337; Q9NPH3 21-359, limits assumed)
- T1 construct: not shown: mouse IgG2a Fc
- T1 sequence (looked up): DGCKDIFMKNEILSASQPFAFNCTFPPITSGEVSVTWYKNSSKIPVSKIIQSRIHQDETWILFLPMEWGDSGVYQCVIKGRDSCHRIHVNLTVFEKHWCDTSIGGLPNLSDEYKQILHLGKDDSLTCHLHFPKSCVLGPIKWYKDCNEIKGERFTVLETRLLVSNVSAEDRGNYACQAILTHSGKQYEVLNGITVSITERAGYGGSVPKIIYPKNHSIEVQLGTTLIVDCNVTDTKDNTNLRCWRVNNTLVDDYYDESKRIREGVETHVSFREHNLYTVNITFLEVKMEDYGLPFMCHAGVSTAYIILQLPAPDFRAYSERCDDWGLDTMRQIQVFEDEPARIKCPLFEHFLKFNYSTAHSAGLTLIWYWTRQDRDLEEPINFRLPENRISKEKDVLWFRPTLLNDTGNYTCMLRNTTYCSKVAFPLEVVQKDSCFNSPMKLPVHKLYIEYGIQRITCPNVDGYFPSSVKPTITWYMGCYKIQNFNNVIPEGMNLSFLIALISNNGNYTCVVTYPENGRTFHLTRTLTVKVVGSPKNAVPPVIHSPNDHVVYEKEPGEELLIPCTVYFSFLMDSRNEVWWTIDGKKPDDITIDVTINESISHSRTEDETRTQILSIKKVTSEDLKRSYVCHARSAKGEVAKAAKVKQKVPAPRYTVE
- assay: SPR Biacore 4000, mAb captured on anti-hFc, 37C
Record form. Attribute: t1/2. Fill in for each entry.

Reported t1/2 for H4H14706P2 (antibody, human IgG4 S228P, kappa, V domains shown, Fully human anti-IL-36R antibody) VH: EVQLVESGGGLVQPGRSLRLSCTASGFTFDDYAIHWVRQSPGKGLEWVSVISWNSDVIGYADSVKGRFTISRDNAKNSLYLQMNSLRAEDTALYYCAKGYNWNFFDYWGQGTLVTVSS VL: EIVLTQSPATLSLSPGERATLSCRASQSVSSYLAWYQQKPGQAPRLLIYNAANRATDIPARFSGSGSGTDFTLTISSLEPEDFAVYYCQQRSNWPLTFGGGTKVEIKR was 43 min

Lookup result for H4H14708P2 (antibody, human IgG4 S228P, kappa, V domains shown, Fully human anti-IL-36R antibody) VH: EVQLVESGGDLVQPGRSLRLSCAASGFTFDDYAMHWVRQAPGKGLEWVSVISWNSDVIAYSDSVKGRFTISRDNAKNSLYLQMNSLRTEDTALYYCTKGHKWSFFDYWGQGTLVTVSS VL: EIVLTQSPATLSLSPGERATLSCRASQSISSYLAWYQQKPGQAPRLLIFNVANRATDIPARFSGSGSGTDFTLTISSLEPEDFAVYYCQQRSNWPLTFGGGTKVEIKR ; measured t1/2: 46 min

Query H4H14700P2 (antibody, human IgG4 S228P, kappa, V domains shown, Fully human anti-IL-36R antibody) VH: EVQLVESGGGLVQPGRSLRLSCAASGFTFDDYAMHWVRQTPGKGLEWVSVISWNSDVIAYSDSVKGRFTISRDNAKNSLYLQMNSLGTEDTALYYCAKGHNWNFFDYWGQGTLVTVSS VL: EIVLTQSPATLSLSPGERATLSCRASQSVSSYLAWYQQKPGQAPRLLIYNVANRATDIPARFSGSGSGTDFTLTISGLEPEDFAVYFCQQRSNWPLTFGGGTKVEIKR yields t1/2 of 46 min

# binder H4H14699P2 (antibody, human IgG4 S228P, kappa, V domains shown, Fully human anti-IL-36R antibody) VH: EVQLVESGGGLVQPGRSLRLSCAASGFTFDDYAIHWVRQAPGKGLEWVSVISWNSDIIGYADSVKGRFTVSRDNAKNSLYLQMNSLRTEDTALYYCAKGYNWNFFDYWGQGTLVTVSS VL: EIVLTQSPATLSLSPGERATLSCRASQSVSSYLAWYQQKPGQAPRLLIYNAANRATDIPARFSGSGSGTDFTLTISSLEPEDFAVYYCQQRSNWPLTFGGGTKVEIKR ; its t1/2 = 23 min

Entry H4H14758P (antibody, human IgG4 S228P, kappa, V domains shown, Fully human anti-IL-36R antibody) VH: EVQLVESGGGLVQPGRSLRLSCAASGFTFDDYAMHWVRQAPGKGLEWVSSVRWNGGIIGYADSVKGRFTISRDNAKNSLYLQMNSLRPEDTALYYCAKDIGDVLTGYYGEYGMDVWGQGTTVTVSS VL: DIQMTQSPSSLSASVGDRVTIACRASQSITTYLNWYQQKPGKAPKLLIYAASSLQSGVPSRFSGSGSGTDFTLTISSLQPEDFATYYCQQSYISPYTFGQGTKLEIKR — recorded t1/2 = 32 min

Entry H4H14757P (antibody, human IgG4 S228P, kappa, V domains shown, Fully human anti-IL-36R antibody) VH: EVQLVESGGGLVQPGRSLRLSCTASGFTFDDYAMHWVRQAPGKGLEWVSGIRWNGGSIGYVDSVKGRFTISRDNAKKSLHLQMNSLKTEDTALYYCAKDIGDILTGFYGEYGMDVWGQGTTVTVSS VL: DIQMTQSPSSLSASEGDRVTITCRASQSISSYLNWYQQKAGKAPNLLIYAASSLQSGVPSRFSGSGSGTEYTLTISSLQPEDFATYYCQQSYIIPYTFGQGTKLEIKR , t1/2 reported as 59 min
